Molecular target: GK (glucokinase, residues 12-465) (Homo sapiens, UniProt P35557)
Construct: I.D. No. 1 corresponds to residues 12-465 of glucokinase; made in house; host or cells: DH10b-T1r E. coli
Sequence (P35557 with tags, fused parts or gaps isoform P35557-2): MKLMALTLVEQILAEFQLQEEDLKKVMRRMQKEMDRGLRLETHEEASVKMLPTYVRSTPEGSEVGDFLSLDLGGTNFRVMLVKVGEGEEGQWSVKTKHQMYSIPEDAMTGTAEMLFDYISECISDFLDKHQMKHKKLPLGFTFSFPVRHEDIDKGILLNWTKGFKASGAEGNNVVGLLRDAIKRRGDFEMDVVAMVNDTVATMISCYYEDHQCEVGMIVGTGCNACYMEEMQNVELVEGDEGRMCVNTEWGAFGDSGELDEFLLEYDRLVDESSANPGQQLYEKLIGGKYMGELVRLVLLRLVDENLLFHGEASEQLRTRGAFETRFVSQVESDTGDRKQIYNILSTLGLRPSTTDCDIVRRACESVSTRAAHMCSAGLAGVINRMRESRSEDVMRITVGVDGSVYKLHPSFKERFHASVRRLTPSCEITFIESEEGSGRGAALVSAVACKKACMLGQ
Test: enzymatic glucokinase activity assay (ATP consumption, KinaseGlo luminescence)
Type: biochemical
Conditions: calculated maximal gain in GK enzyme activity at a saturating concentration of the compound; 5 μM ATP, 5 mM Glucose; reported as bins; read-out: % ACTmax
The entries below are paired with their reported Emax.

Solved cases below.
O=C(Nc1ncc(F)s1)C(CC1CCOCC1)n1ncc2c(S(=O)(=O)C3CC3)cc(O)cc21 (stereo not drawn) [Compound 130]; 101 to 105%
COc1ccc2nc(NC(=O)[C@H](CC3CCOCC3)n3cc(S(=O)(=O)C4CC4)cn3)sc2n1 [Compound 26]; ≤ 90%
O=C(Nc1ncc(F)s1)[C@H](CC1CCOCC1)n1ncc2c(S(=O)(=O)C3CC3)cc(F)cc21 [Compound 123]; ≥ 111%
O=C(Nc1ncc(F)s1)[C@@H](CC1CCOCC1)n1ncc2c(S(=O)(=O)C3CC3)cccc21 [Compound 68]; 101 to 105%
O=C(Nc1ncc(Cl)s1)C(CC1CCOCC1)n1cc2cc(S(=O)(=O)C3CC3)ccc2n1 (stereo not drawn) [Compound 51]; ≥ 111%

Please report the measured Emax for O=C(Nc1ncc(F)s1)[C@H](CC1CCOCC1)n1ncc2c(S(=O)(=O)C3CC3)cc(O)cc21 [Compound 76]
106 to 110%
